Provenance of the data: patent US20240116985A1

Assay: CHI Log D procedure
Assay type: physicochemical
Details: pH 7.4
Here the recorded CHI Log D is given for each entry.
Please respond with just the number, no unit label.

// CC[C@H](C)[C@@H]1NC(=O)[C@H](CC(=O)O)NC(=O)[C@]2(CC=CCCCC3(CCCC=CCCCCCC[C@@](C)(C(=O)N[C@@H](Cc4ccccc4)C(=O)N[C@@H](Cc4csc5ccccc45)C(=O)N[C@@H](CCC(N)=O)C(N)=O)NC(=O)[C@H](CCC(N)=O)NC(=O)[C@H](Cc4ccccc4)NC(=O)[C@H](C)NC(=O)[C@H](C)NC(=O)[C@H](CCC(=O)O)NC(=O)[C@H](CC(=O)O)NC3=O)NC1=O)CCCN2C(=O)Cc1ccccc1 (some centres unmarked) [I-601] : CHI Log D value = 2.748

Kindly consider the entry below.
Value of measured CHI Log D for the entry CC(=O)N1CCC[C@]12CC=CCCCC1(CCCC=CCCCOC(=O)N3CC[C@@](C(=O)N[C@@H](Cc4ccccc4Cl)C(=O)N[C@@H](Cc4csc5ccccc45)C(=O)N[C@@H](CO)C(N)=O)(C3)NC(=O)[C@H](CC(C)C)NC(=O)[C@H](Cc3ccccc3)NC(=O)[C@H](C)NC(=O)[C@H](C)NC(=O)[C@H](CC(=O)O)NC(=O)[C@H](CC(=O)O)NC1=O)NC(=O)[C@H](CC(C)(C)C)NC(=O)[C@H](CC(=O)O)NC2=O (some centres unmarked) [I-1065] : 2.044

---

Test: CHI Log D procedure
Format: physicochemical
Conditions: pH 7.4
Catalogue of molecules with associated CHI Log D
Give your answer as a number; write no unit.

Reference set, count: 2
Query CC(=O)N1CCC[C@]12CC=CCCCC1(CCCC=CCCCCCC[C@@](C)(C(=O)N[C@@H](Cc3ccsc3)C(=O)N[C@@H](Cc3csc4ccccc34)C(=O)N[C@@H](CCC(N)=O)C(N)=O)NC(=O)[C@H](CC(N)=O)NC(=O)[C@H](Cc3ccccc3)NC(=O)[C@H](C)NC(=O)[C@H](C)NC(=O)[C@H](CCC(=O)O)NC(=O)[C@H](CC(=O)O)NC1=O)NC(=O)[C@H](CC(C)(C)C)NC(=O)[C@H](CC(=O)O)NC2=O (stereo partly drawn) [I-682] yields CHI Log D of 2.409

Entry CC(=O)NC(C)(C)C(=O)N[C@@H](CC(=O)O)C(=O)N[C@@H](C)C(=O)N[C@]1(C)CCCCCCC=CCOC(=O)N2CC[C@@](C(=O)N[C@@H](Cc3ccccc3)C(=O)N[C@@H](Cc3c[nH]c4ccccc34)C(=O)NC(C)(C)C(N)=O)(C2)NC(=O)[C@H](C(C)C)NC(=O)[C@H](Cc2ccccc2)NC(=O)[C@H](C)NC(=O)[C@H](C)NC(=O)[C@H](CCC(=O)O)NC(=O)[C@H](CC(=O)O)NC1=O [I-160] , CHI Log D reported as 1.49

For the next question, use this molecule.
For CC(=O)N1CCC[C@]12CC=CCCCC1(CCCC=CCCCCCC[C@@](C)(C(=O)N[C@@H](Cc3ccccc3)C(=O)N[C@@H](Cc3c[nH]c4ccccc34)C(=O)N[C@@H](CCC(N)=O)C(N)=O)NC(=O)[C@H](C(C)C)NC(=O)[C@H](Cc3cc(F)c(F)c(F)c3)NC(=O)[C@H](C)NC(=O)[C@H](C)NC(=O)[C@H](CCC(=O)O)NC(=O)[C@H](CC(=O)O)NC1=O)NC(=O)[C@H](C)NC(=O)[C@H](CC(=O)O)NC2=O (stereo partly drawn) [I-209] the molecule record lists CHI Log D as 2.088

---

Experiment: in vitro
Assay type: cell-based
Conditions: human, HEK293 cells, CTG (CellTiter Glo) Relative to Media
assay metric: viability at 5 µM (%)
Unit % implied. Number only.

get_value(item= CC(=O)N1CCC[C@]12CC=CCCCC1(CCCC=CCCCOC(=O)N3CC[C@@](C(=O)N[C@@H](Cc4ccsc4)C(=O)N[C@@H](Cc4csc5ccccc45)C(=O)N[C@@H](CCC(N)=O)C(N)=O)(C3)NC(=O)[C@H](CC(N)=O)NC(=O)[C@H](CC(=O)O)NC(=O)[C@H](C)NC(=O)[C@H](C)NC(=O)[C@H](CC(=O)O)NC(=O)[C@H](CC(=O)O)NC1=O)NC(=O)[C@H](CC(C)(C)C)NC(=O)[C@H](Cc1ccccc1)NC2=O (some centres unmarked) [I-797] , readout=viability at 5 µM) returns 102

Here's the next entry for you.
Form field viability at 5 µM, entry CC(=O)N1CCC[C@]12CC=CCCCC1(CCCC=CCCCOC(=O)N3CC[C@@](C(=O)N[C@@H](Cc4ccsc4)C(=O)N[C@@H](Cc4csc5ccccc45)C(=O)N[C@@H](CCC(N)=O)C(=O)N[C@H](C)C(N)=O)(C3)NC(=O)[C@H](CC(N)=O)NC(=O)[C@H](Cc3ccccc3)NC(=O)[C@H](C)NC(=O)[C@H](C)NC(=O)[C@H](CC(=O)O)NC(=O)[C@H](CC(=O)O)NC1=O)NC(=O)[C@H](CC(C)(C)C)NC(=O)[C@H](CC(=O)O)NC2=O (some centres unmarked) [I-822] : 94

---

Assay: Solubility in PBS
Assay type: physicochemical
assay metric: Solubility (µM)
The reply should contain only the number, in µM.

These recorded examples may help you get a feel for the data.
Per the records, this compound ( CC[C@H](C)[C@@H]1NC(=O)[C@H](CC(=O)O)NC(=O)[C@]2(CC=CCCCC3(CCCC=CCCCCCC[C@@](C)(C(=O)N[C@@H](Cc4ccccc4)C(=O)N[C@@H](Cc4csc5ccccc45)C(=O)N[C@@H](CCC(N)=O)C(N)=O)NC(=O)[C@H](CC(N)=O)NC(=O)[C@H](Cc4ccccc4)NC(=O)[C@H](C)NC(=O)[C@H](C)NC(=O)[C@H](CC(=O)O)NC(=O)[C@H](CC(=O)O)NC3=O)NC1=O)CCCN2C(C)=O (some centres unmarked) [I-468] ) has Solubility equal to 41

The recorded Solubility for CC(=O)N1CCC[C@]12CC=CCCCC1(CCCC=CCCCCCC[C@@](C)(C(=O)N[C@@H](Cc3ccccc3)C(=O)N[C@@H](Cc3csc4ccccc34)C(=O)N[C@@H](CCC(N)=O)C(N)=O)NC(=O)[C@H](CC(N)=O)NC(=O)[C@H](Cc3ccccc3)NC(=O)[C@H](C)NC(=O)[C@H](C)NC(=O)[C@H](CC(=O)O)NC(=O)[C@H](CC(=O)O)NC1=O)NC(=O)[C@H](CCC(C)C)NC(=O)[C@H](CC(=O)O)NC2=O (some centres unmarked) is 50

Documented Solubility of CC(=O)N1CCC[C@]12CC=CCCCC1(CCCC=CCCCCCC[C@@](C)(C(=O)N[C@@H](Cc3ccccc3Cl)C(=O)N[C@@H](Cc3csc4ccccc34)C(=O)N[C@@H](CCC(N)=O)C(N)=O)NC(=O)[C@H](CC(C)C)NC(=O)[C@H](Cc3ccccc3)NC(=O)[C@H](C)NC(=O)[C@H](C)NC(=O)[C@H](CN(CC(=O)O)CC(F)(F)F)NC(=O)[C@H](CC(=O)O)NC1=O)NC(=O)[C@H](CC(C)(C)C)NC(=O)[C@H](CC(=O)O)NC2=O (some centres unmarked) : 10

New cases:
Lab note: measured Solubility of CC(=O)N1CCC[C@]12CC=CCCCC1(CCCC=CCCCCCC[C@@](C)(C(=O)N[C@@H](Cc3ccccc3)C(=O)N[C@@H](Cc3csc4ccccc34)C(=O)N[C@@H](CCC(N)=O)C(N)=O)NC(=O)[C@H](C(C)C)NC(=O)[C@H](Cc3cccc(F)c3F)NC(=O)[C@H](C)NC(=O)[C@H](C)NC(=O)[C@H](CCC(=O)O)NC(=O)[C@H](CC(=O)O)NC1=O)NC(=O)[C@H](C)NC(=O)[C@H](CC(=O)O)NC2=O (some centres unmarked) [I-390] was 10

CC(=O)N1CCC[C@]12CC=CCCCC1(CCCC=CCCCOC(=O)N3CC[C@@](C(=O)N[C@@H](Cc4ccsc4)C(=O)N[C@@H](Cc4csc5ccccc45)C(N)=O)(C3)NC(=O)[C@H](CC(N)=O)NC(=O)[C@H](Cc3ccccc3)NC(=O)[C@H](C)NC(=O)[C@H](C)NC(=O)[C@H](CC(C)C)NC(=O)[C@H](CC(=O)O)NC1=O)NC(=O)[C@H](CC(C)(C)C)NC(=O)[C@H](CC(=O)O)NC2=O (some centres unmarked) yielded Solubility of 10

---

Target: full-length beta-Catenin (Uniprot ID P35222) (Homo sapiens, UniProt P35222)
Construct: 10 nM full-length beta-Catenin (Uniprot ID P35222)
Sequence (P35222 whole entry): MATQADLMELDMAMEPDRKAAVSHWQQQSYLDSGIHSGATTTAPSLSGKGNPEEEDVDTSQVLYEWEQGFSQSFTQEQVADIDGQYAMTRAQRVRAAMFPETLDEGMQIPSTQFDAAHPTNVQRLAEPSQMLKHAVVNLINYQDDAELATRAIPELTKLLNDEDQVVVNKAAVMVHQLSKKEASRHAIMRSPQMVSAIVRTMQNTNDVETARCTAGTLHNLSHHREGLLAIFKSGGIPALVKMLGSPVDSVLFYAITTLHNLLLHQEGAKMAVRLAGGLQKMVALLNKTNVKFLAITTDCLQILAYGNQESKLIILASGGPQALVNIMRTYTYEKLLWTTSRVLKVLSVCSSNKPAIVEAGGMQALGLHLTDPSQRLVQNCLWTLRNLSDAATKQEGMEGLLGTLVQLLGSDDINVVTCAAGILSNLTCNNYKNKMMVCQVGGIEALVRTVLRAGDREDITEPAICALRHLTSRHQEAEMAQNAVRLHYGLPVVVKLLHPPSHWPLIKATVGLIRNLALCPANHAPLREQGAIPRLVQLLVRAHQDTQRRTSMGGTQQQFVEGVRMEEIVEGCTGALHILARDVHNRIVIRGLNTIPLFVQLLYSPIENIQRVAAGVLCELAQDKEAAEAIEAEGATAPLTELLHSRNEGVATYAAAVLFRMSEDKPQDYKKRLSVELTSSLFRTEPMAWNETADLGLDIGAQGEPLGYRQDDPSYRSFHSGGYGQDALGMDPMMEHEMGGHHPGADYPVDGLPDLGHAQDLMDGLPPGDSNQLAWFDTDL
Assay: Fluorescence polarization IC50 (beta-catenin / 5FAM-TCF4 10-53 competition)
Assay type: binding
Details: read-out: FP EC50
Reported pIC50 values for the following compounds.
pIC50 is defined as minus the log10 of a concentration measured in mol/L.

Form: compound = CC(=O)N1CCC[C@]12CC=CCCCC1(CCCC=CCCCCCC[C@@](C)(C(=O)N[C@@H](Cc3ccccc3)C(=O)N[C@@H](Cc3csc4ccccc34)C(=O)N[C@@H](CCC(N)=O)C(N)=O)NC(=O)[C@H](CC(N)=O)NC(=O)[C@H](Cc3ccccc3)NC(=O)[C@H](C)NC(=O)[C@H](C)NC(=O)[C@H](CC(=O)O)NC(=O)[C@H](CC(=O)O)NC1=O)NC(=O)[C@H](C(C)C)NC(=O)[C@H](CC(=O)O)NC2=O (stereo partly drawn) [I-566] ; pIC50 = 7.12

Next:
Notebook: CC(=O)N1CCC[C@]12CC=CCCCC1(CCCC=CCCCOC(=O)N3CC[C@@](C(=O)N[C@@H](Cc4ccsc4)C(=O)N[C@@H](Cc4csc5ccccc45)C(=O)N[C@@H](Cc4c[nH]cn4)C(N)=O)(C3)NC(=O)[C@H](CC(N)=O)NC(=O)[C@H](CC(=O)O)NC(=O)[C@H](C)NC(=O)[C@H](C)NC(=O)[C@H](CC(=O)O)NC(=O)[C@H](CC(=O)O)NC1=O)NC(=O)[C@H](CC(C)(C)C)NC(=O)[C@H](Cc1ccccc1)NC2=O (stereo partly drawn) , pIC50 read as 5.09

The recorded pIC50 for CC(=O)N1CCC[C@]12CC=CCCCC1(CCCC=CCCCCOC(=O)N3CC[C@@](C(=O)N[C@@H](Cc4ccccc4)C(=O)N[C@@H](Cc4csc5ccccc45)C(=O)N[C@@H](CCC(N)=O)C(N)=O)(C3)NC(=O)[C@H](CC(N)=O)NC(=O)[C@H](Cc3ccccc3)NC(=O)[C@H](C)NC(=O)[C@H](C)NC(=O)[C@H](CCC(=O)O)NC(=O)[C@H](CC(=O)O)NC1=O)NC(=O)[C@H](C)NC(=O)[C@H](CC(=O)O)NC2=O (stereo partly drawn) [I-464] is 7.24
